Biological target: SARS-CoV-2 S on pseudovirions (Wuhan Hu-1 / IL1/2020, last 18 amino acids removed) (SARS-CoV-2, UniProt P0DTC2 14-1273)
Experiment: cell-based or functional assay
Task for the reader: assign each of the following binders its reported Mean IC50, pSV neutralization.
One number for each entry, in µg/ml.

| Binder | Measurement units | Mean IC50, pSV neutralization |
| --- | --- | --- |
| COV_2024 (antibody, V domains shown, human IgG1) VH: QVQLVQSGAEVRKPGSSVKVSCKASGGTFSTYAISWVRQAPGQGLEWMGGIIPMFGTTNYAQKFQGRVTITADESTRTAYMELSSLRSEDTAVYYCARDGGYDSWPDFDYWGQGTLVTVSS VL: EIVLTQSPATLSLSPGERATLSCRASQSISSFLAWYQQKPGQAPRLLIYDASNRATGIPARFSGSGSGTDFTLTVSSLEPEDFAVYYCHQRRNWPPIKTFGQGTKVDIK | µg/ml | 9.59 |

Need Mean IC50, pSV neutralization for each of these binders.
1. COV_1032 (antibody, V domains shown, human IgG1) VH: QVHLQESGPGLVKPSETLSLTCTVSGGSISSYYWSWIRQPPGKGLEWIGYIYDSGSTNYNPSLKSRVTISVDTSKNQFSLKLSSVTAADTAVYYCARSVRGVTIDYWGQGTLVTVSS VL: DIQMTQSPSSLSASVGDRVTITCRASQSISNSISSYLNWYQKKPGKAPKLLIYAASSLQSGVPSRFSGSGSGTDFTLTISSLQPEDFATYYCQQSYSTPTTFGQGTKVEIKR
2. COV_2100 (antibody, V domains shown, human IgG1) VH: EVQLVESGGGLVQPGGSLRLSCAASGFTFSSYDMYWVRQATGKGLEWVSAIGTAGDTYYPGSVKGRFTISRENAKNSLYLRMNSLRAGDTAVYFCARADKNTAMFFDYWGQGTLVTVSS VL: DIQMTQSPSSLSASVGDRVTITCRASQNINNFLHWYQQKPGNAPKLLIYAASTLQSGVPSRFSGSGSGTDFTLTISSLQPEDFATYYCQQSYSTPGGTFGGGTKVEIK

Response line:
1: 2.5; 2: 23
